# System: P. falciparum stage V gametocytes
# Parameters: BacTiter-Glo ATP luminescence viability of purified stage V gametocytes in 384-well plates, per cent inhibition versus DMSO
# assay.context: 48 h, 5 µM; inhibitor
In all, about 13,000 compounds went through this assay and about 3,200 (25%) showed an effect of 50% or more. Some of the results follow.
Please assign a class to every record based on measured % Inhibition, with ranges low end = under -20%, middle = from -20% up to 30%, high end = 30% and over

INSERT INTO results (compound, label_class) VALUES
  ('COc1ccc(O)c(C(=O)c2cc(C(=O)NCCc3ccccc3)c(=O)n(CCc3ccccc3)c2)c1', 'middle'),
  ('CCc1c(C(=O)NC2CCC(N3CCC(c4ccccc4C)CC3)CC2)[nH]c2ccc(Br)cc12 (centres unmarked)', 'low end'),
  ('OCCCCCCNc1ccnc2[nH]c3ccc(I)cc3c12', 'middle');

Class? Entry: `Cc1cccc2[nH]c(-c3cccc(-c4cccc(NC(=O)Nc5ccc(F)c(F)c5F)c4)c3)nc12`
low end

Class? Entry: `CC[C@H](N=C(Nc1ccc(C#N)cc1O)Nc1cccc(Cl)c1Cl)c1ccccc1`
high end

Class? Entry: `O=C(CN1CCN(C(=O)c2ccco2)CC1)Nc1ccccc1Br`
high end

Class? Entry: CCCCCC(C)N=C(Nc1ccc(C#N)cc1O)Nc1cccc(Cl)c1Cl (centres unmarked)
low end

Class? Entry: `O=C(Nc1cccc(CN2CCCN(Cc3ccc(O)cc3)CC2)c1)c1cccc(C(F)(F)F)c1`
low end

* * *

# Test system: P. falciparum stage V gametocytes
# Design: BacTiter-Glo ATP luminescence viability of purified stage V gametocytes in 384-well plates, per cent inhibition versus DMSO
# assay.context: 48 h, 5 µM; inhibitor
Screen size: about 13,000 compounds; about 3,200 (25%) showed an effect of 50% or more. Some of the results follow.
% Inhibition by entry:
# number only, unit % dropped from output

// worked examples, % Inhibition included
INSERT INTO measurements (compound, system, assay_readout, unit, measurement) VALUES
  ('O=c1[nH]ccc2nc(N[C@@H]3CCNC3)nc(Nc3cccc(S(=O)(=O)N4CCOCC4)c3)c12 [TCMDC-135047]', 'P. falciparum stage V gametocytes', '% Inhibition', '%', 89.83),
  ('Nc1oc2c(CN3CCCCCC3)c(O)ccc2c(=O)c1-c1nc2ccccc2s1 [TCMDC-124554]', 'P. falciparum stage V gametocytes', '% Inhibition', '%', -27.76),
  ('COc1ccc(CNC2CCN(C)CC2)cc1-c1ccc(S(=O)(=O)NCCc2ccccn2)c(F)c1 [TCMDC-132264]', 'P. falciparum stage V gametocytes', '% Inhibition', '%', 102.9);

Report % Inhibition, nothing else, for this compound: Cc1ccc(O)cc1Nc1ccnc2cc(-c3ccc(CN4CCCCC4)o3)ccc12 [TCMDC-138384]
25.1

Report % Inhibition, nothing else, for this compound: COc1ccc(CNC2CCN(C)CC2)cc1-c1ccc(S(=O)(=O)NCCc2ccccn2)cc1 [TCMDC-132246]
50.8

Report % Inhibition, nothing else, for this compound: CN(C)S(=O)(=O)c1ccc(Nc2nc(NCCC3C=NC=N3)nc3cc[nH]c(=O)c23)cc1 (centres unmarked) [TCMDC-135045]
-6.172

Report % Inhibition, nothing else, for this compound: COc1ccc2nccc([C@@H](O)CN3CCC(NCCOc4ccccc4C#N)CC3)c2c1 [TCMDC-140712]
9.495

Report % Inhibition, nothing else, for this compound: CN1CCN(Cc2ccc(-c3ccc4c(Nc5ccc(Oc6ccccn6)cc5)ccnc4c3)o2)CC1 [TCMDC-138420]
73.84

* * *

% Inhibition by entry:
# Tested on: P. falciparum stage V gametocytes
# Set-up: BacTiter-Glo ATP luminescence viability of purified stage V gametocytes in 384-well plates, per cent inhibition versus DMSO
# assay.context: 48 h, 5 µM; inhibitor
The campaign covered roughly 13,000 compounds. About 3,200 (25%) showed an effect of 50% or more. The list shows a part of the results.
# number only, unit % dropped from output

INSERT INTO assay_data (molecule, assay_readout, measurement) VALUES
  ('COc1ccc2nccc([C@@H](O)CN3CCC(NCc4ccc(OC)c(NC=O)c4)CC3)c2c1 [TCMDC-141568]', '% Inhibition', 1.46),
  ('CN(/N=C/C=C/c1ccc(Cl)cc1)c1nc(NCCc2ccc(O)cc2)nc(N2CCNCC2)n1 [TCMDC-138546]', '% Inhibition', 80.85);

# next molecule below
Report % Inhibition, nothing else, for this molecule: CCCCCCNC(=O)C1Cc2c([nH]c3ccc(F)cc23)C2(CCN(Cc3ccccc3)CC2)N1 (stereo not drawn) [TCMDC-141303]
21.59

* * *

# Tested on: P. falciparum stage V gametocytes
# Parameters: BacTiter-Glo ATP luminescence viability of purified stage V gametocytes in 384-well plates, per cent inhibition versus DMSO
# assay.context: 48 h, 5 µM; inhibitor
In all, about 13,000 compounds went through this assay and about 3,200 (25%) showed an effect of 50% or more. Some of the results follow.
assay.readout: % Inhibition (%)
# number only, unit % dropped from output

// worked examples, % Inhibition included
INSERT INTO measurements (compound, measurement) VALUES
  ('COc1ccc(C(=O)N[C@@H](CC(C)C)C(=O)N[C@H](/C=N/NC(=O)c2ccccc2)CCc2ccccc2)cc1OCCN1CCOCC1', -24.16),
  ('CC1(C)N=C(N)N=C(N)N1OCCSc1ccccc1', -8.546),
  ('COc1cc2c(cc1OCCN1CCC(N3CCCCC3)CC1)N(C(=O)/C=C/c1ccccc1Cl)CC2', 68.26),
  ('COc1ccc2nccc([C@@H](O)CN3CCC(NC(=O)C(c4ccsc4)N4CCN(c5ccccc5OC)CC4)CC3)c2c1 (stereo partly shown)', -19.96),
  ('COc1ccc(NC(=O)/C=C/c2ccccc2Cl)cc1OCCN1CCC(N2CCCCC2)CC1', -6.505);

# next compound below
Report % Inhibition, nothing else, for this compound: `CCOC(=O)Cn1ccc2c(NCc3ccccc3)nc(C)nc21`
9.107

* * *

# Test system: P. falciparum stage V gametocytes
# Design: BacTiter-Glo ATP luminescence viability of purified stage V gametocytes in 384-well plates, per cent inhibition versus DMSO
# assay.context: 48 h, 5 µM; inhibitor
Screen size: about 13,000 compounds; about 3,200 (25%) showed an effect of 50% or more. The list shows a part of the results.
Threshold rule: % Inhibition greater than or equal to 20% is 1 (yes); below that, 0 (no).

Hi team, for `CN(CCO)Cc1cccc(-c2ccc(NC(=O)c3cccc(C#N)c3)cc2)c1` , is the recorded % Inhibition at or above 20%?
0 (no)

* * *

# Test system: P. falciparum stage V gametocytes
# Design: BacTiter-Glo ATP luminescence viability of purified stage V gametocytes in 384-well plates, per cent inhibition versus DMSO
# assay.context: 48 h, 5 µM; inhibitor
In all, about 13,000 compounds went through this assay and about 3,200 (25%) showed an effect of 50% or more. Some of the results follow.
% Inhibition by entry:
# number only, unit % dropped from output

// worked examples, % Inhibition included
INSERT INTO results (compound, system, measurement) VALUES
  ('NC1=NC2(CCCCC2)N(OCCCOc2cccc3ccccc23)C(N)=N1', 'P. falciparum stage V gametocytes', 49.63),
  ('O=C(Cn1c(CCc2cccc(F)c2F)nc(=O)c2cccnc21)N(Cc1ccc(-c2ccc(C(F)(F)F)cc2)cc1)C1CCN(C2CCSCC2)CC1', 'P. falciparum stage V gametocytes', 46.52),
  ('O=C(NC1CCCCC1)N(Cc1ccc(-c2cccc(CNC3CCCC3)c2)cc1)C1CCN(Cc2ccccc2)CC1', 'P. falciparum stage V gametocytes', 83.36),
  ('O=[N+]([O-])c1ccc(Oc2c(Cl)cc(S(=O)(=O)NC3CCC(CN4CCC(c5c[nH]c6ccccc56)CC4)CC3)cc2Cl)c(Cl)c1 (centres unmarked)', 'P. falciparum stage V gametocytes', 62.46),
  ('O=C(Cc1ccc(NC(=O)c2ccc(O)c(-c3ccc(Cl)c(Cl)c3)c2)cc1)NCCN1CCCCC1', 'P. falciparum stage V gametocytes', -19.27),
  ('O=c1cc(NCCCNCc2cc(C(F)(F)F)ccc2F)[nH]c2ccccc12', 'P. falciparum stage V gametocytes', -83.26);

Report % Inhibition, nothing else, for this compound: `O=C(CNc1ccc(Cl)c(S(=O)(=O)N2CCCC2)c1)Nc1ccc(Br)cc1F`
24.63

Report % Inhibition, nothing else, for this compound: `O=C(Cn1c(CCc2cccc(F)c2F)nc(=O)c2ccccc21)N(Cc1ccc(-c2ccc(C(F)(F)F)cc2)cc1)C1CCN(C2CCSCC2)CC1`
103.4

Report % Inhibition, nothing else, for this compound: `Cc1[nH]c2ccc([N+](=O)[O-])cc2c1C1=CCN(C)CC1`
-16.2

Report % Inhibition, nothing else, for this compound: `N#Cc1ccc(-c2ccc(C(=O)NCCCCN3CCC(c4ccncc4)CC3)cc2)cc1`
-0.7108

Report % Inhibition, nothing else, for this compound: `CC(C)CNCc1ccc(-c2ccc(CN(CCCN3CCN(C)CC3)C(=O)/C=C/c3ccccc3)cc2)cc1`
104.5
